Test system: Trypanosoma cruzi
protocol-notes: Efficacy against T. cruzi in vitro
Assay type: cell-based
experimental-parameters: Trypanosoma cruzi; Table 16; read-out: T. Cruzi EC50
Please go through the items and note down their EC50.
I only need the number, in nM, no unit after it.

Let me check: `O=C(Nc1ccn2cc(-c3cccc(F)c3)nc2c1)N1CCCCC1` , system Trypanosoma cruzi, measured EC50 is 3100

Let me check: `O=C(Nc1ccn2cc(-c3cccc(F)c3F)nc2c1)N1CC[C@H](F)C1` , system Trypanosoma cruzi, measured EC50 is 940

Let me check: `O=C(Nc1ccn2cc(-c3cccc(F)c3)nc2c1)N1CCCC1` , system Trypanosoma cruzi, measured EC50 is 2950

Let me check: `O=C(Nc1ccn2cc(-c3ccc(F)c(F)c3)nc2c1)N1CC[C@H](F)C1` , system Trypanosoma cruzi, measured EC50 is 390

Let me check: `O=C(Nc1ccn2cc(-c3cccc(F)c3F)nc2c1)N1CCCC1` , system Trypanosoma cruzi, measured EC50 is 1020

Let me check: `O=C(Nc1ccn2cc(-c3ccccc3)nc2c1)N1CCCCC1` , system Trypanosoma cruzi, measured EC50 is 2750

Let me check: `O=C(Nc1ccn2cc(-c3ccccc3)nc2c1)N1CCCC1` , system Trypanosoma cruzi, measured EC50 is 4460

Let me check: `O=C(Nc1ccn2cc(-c3ccc(F)c(F)c3)nc2n1)N1CC[C@H](F)C1` , system Trypanosoma cruzi, measured EC50 is 2530

Let me check: `O=C(Nc1ccn2cc(-c3cccc(F)c3)nc2c1)N1CC[C@H](F)C1` , system Trypanosoma cruzi, measured EC50 is 710

Let me check: `O=C(Nc1ccn2cc(-c3ccc(F)c(F)c3)nc2c1)N1CCCCC1` , system Trypanosoma cruzi, measured EC50 is 2840

Let me check: `O=C(Nc1ccn2cc(-c3cccc(F)c3F)nc2c1)N1CCCCC1` , system Trypanosoma cruzi, measured EC50 is 1000

Let me check: `O=C(Nc1cc2nc(-c3ccc(F)c(F)c3)cn2cn1)N1CC[C@H](F)C1` , system Trypanosoma cruzi, measured EC50 is 90

Let me check: `O=C(Nc1ccn2cc(-c3ccc(F)c(F)c3)nc2c1)N1CCCC1` , system Trypanosoma cruzi, measured EC50 is 2240

Let me check: `O=C(Nc1ccn2cc(-c3ccccc3)nc2c1)N1CC[C@H](F)C1` , system Trypanosoma cruzi, measured EC50 is 1080

----------
protocol-notes: Mouse oral pharmacokinetics
Assay type: in vivo
experimental-parameters: Table 13; mice, single 50 mg/kg oral gavage; vehicle Tween 80 (7%), EtOH (3%), DMSO (5%) in 0.9% NaCl; ± SEM of 3 mice; read-out: Cmax
quantity-measured: Cmax (µM)
I only need the number, in µM, no unit after it.

`O=C(Nc1ccc2sc(-c3ccc(F)c(F)c3)nc2c1)N1C[C@@H](F)[C@H](F)C1` has a reported Cmax of 11

`O=C(Nc1ccc2sc(-c3ccc(F)c(F)c3)nc2c1)N1CCCC1` has a reported Cmax of 2.01

O=C(Nc1ccc2sc(-c3ccc(F)c(F)c3)nc2c1)N1CCC(F)C1 (racemic) has a reported Cmax of 10

----------
Please go through the items and note down their Cmax.
protocol-notes: Mouse oral pharmacokinetics
Format: in vivo
experimental-parameters: mouse, plasma, po, 50 mg/kg; Table 5; n = 3; read-out: Mouse oral PK Average Cmax
Description: […] Experiments were performed with groups of three mice per compound. Plasma was separated and extracted with acetonitrile for measurements of compound concentrations by liquid chromatography/tandem mass spectrometry.
I only need the number, in µM, no unit after it.

`O=C(Nc1ccc2sc(-c3ccc(F)c(F)c3)nc2c1)N1CCCC1` has a reported Cmax of 2

`O=C(Nc1ccc2sc(-c3ccc(F)c(F)c3)nc2c1)N1CC[C@H](F)C1` has a reported Cmax of 23.3

O=C(Nc1ccc2sc(-c3ccc(F)c(F)c3)nc2c1)N1CCC(F)C1 (racemic) has a reported Cmax of 10
